Hey, just so you know, these numbers are from patent EP0423133B1.

- assay_method_text: Solubility by absorbance of saturated solutions at 262 nm
- Assay type: physicochemical
- condition_parameters: water; as stated in the text of the examples; read-out: water solubility
Catalogue of compounds with associated solubility
property_label: solubility

{"compound": "CC(C)Cc1ccc(C(C)C(=O)OCC(F)(F)F)cc1 (racemic) [Compound 19]", "val": "~400 µM"}
{"compound": "CCCCCCCCOC(=O)C(C)Cl (racemic) [Compound 20, Octyl Ester of 2-Chloropropanoic Acid]", "val": "~1200 µM"}
